Recorded values, source patent US8618289B2.

Subject Of Test: RAF kinases (Homo sapiens, UniProt P15056)
Sequence (P15056 whole entry): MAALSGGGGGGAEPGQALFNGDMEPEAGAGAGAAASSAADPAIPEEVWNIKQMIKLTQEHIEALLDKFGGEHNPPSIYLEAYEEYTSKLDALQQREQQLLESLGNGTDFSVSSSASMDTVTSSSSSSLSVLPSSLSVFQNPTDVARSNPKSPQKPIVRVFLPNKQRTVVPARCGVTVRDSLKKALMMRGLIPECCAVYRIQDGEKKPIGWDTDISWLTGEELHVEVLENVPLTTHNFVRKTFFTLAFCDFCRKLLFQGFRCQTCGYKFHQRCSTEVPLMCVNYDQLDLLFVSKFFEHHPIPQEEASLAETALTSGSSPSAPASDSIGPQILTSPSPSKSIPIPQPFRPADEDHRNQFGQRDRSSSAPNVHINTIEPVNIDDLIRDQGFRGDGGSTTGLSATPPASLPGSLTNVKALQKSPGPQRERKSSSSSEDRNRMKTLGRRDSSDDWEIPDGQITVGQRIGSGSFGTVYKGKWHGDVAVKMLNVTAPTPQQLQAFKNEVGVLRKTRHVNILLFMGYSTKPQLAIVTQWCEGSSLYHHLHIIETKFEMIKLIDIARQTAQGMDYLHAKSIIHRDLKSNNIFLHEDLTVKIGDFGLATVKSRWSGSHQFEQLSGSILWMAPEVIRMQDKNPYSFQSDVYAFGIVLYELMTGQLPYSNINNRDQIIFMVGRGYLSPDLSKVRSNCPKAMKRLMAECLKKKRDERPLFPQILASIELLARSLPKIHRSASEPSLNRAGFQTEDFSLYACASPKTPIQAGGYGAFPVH
Cond: read-out: BRAF WT Kd; BRAF WT
Counter-ions that a name gives are not always drawn.
Measured Endpoint: Kd

[[record]]
compound = "COc1cc2c(Oc3cccc(NC(=O)Nc4cc(C(C)(C)C(F)(F)F)on4)c3)ncnc2cc1O"
assay_value = "< 250 nM"

[[record]]
compound = "COCCOc1cc2ncnc(Oc3cccc(NC(=O)Nc4cc(C5CCCC5)on4)c3)c2cc1OC"
assay_value = "< 250 nM"

[[record]]
compound = "COCCOc1cc2ncnc(Oc3cccc(NC(=O)Nc4cc(C5CCOCC5)no4)c3)c2cc1OC"
assay_value = "> 1000 nM"

[[record]]
compound = "COc1cc2ncnc(Oc3cccc(NC(=O)Nc4cc(C(C)(C)C)nn4-c4ccccc4)c3C)c2cc1OC"
assay_value = "> 1000 nM"

[[record]]
compound = "CCOC(=O)Cn1nc(C(C)(C)C)cc1NC(=O)Nc1cccc(Oc2ncnc3cc(OCCOC)c(OC)cc23)c1 [Ex 224, hydrochloride]"
assay_value = "> 1000 nM"

[[record]]
compound = "COCCOc1cc2ncnc(Sc3cccc(NC(=O)Nc4cc(C(C)(CF)CF)nn4-c4ccccc4)c3)c2cc1OC"
assay_value = "> 1000 nM"

[[record]]
compound = "COc1cc2ncnc(Oc3cc(NC(=O)Nc4cc(C(F)(F)F)nn4-c4ccccc4)c(F)cc3F)c2cc1OC"
assay_value = "> 1000 nM"

[[record]]
compound = "COc1cc2ncnc(Sc3cccc(NC(=O)Nc4cc(C(C)(C)C)nn4-c4cccc(C)c4)c3)c2cc1OC"
assay_value = "> 1000 nM"


---

Subject Of Test: RAF kinases (Homo sapiens)
Cond: read-out: BRAF WT Kd; BRAF WT
pKd: −log10 of the molar value.
Listed here: items and their measured pKd.
Measured Endpoint: pKd

[[record]]
compound = "COCCOc1cc2ncnc(Oc3cccc(NC(=O)Nc4cc(C(F)(F)F)nn4-c4ccc(C)cc4)c3)c2cc1OC"
measured_endpoint = "pKd"
assay_value = "< 6.00"

[[record]]
compound = "COc1cc2ncnc(Oc3cc(NC(=O)Nc4cc(C(C)(C)C)nn4-c4ccccc4)c(F)cc3F)c2cc1OC"
measured_endpoint = "pKd"
assay_value = "< 6.00"

[[record]]
compound = "COCCOc1cc2ncnc(Oc3cccc(NC(=O)Nc4cccc(C(C)(C)C#N)c4)c3)c2cc1OC"
measured_endpoint = "pKd"
assay_value = "> 6.60"

[[record]]
compound = "COCCOc1cc2ncnc(Sc3cccc(NC(=O)Nc4cc(C(C)(C)C)nn4-c4ccc(C)cc4C)c3)c2cc1OC"
measured_endpoint = "pKd"
assay_value = "< 6.00"

[[record]]
compound = "CCc1cc(NC(=O)Nc2cccc(Sc3ncnc4cc(OC)c(OC)cc34)c2)n(-c2ccccc2)n1"
measured_endpoint = "pKd"
assay_value = "> 6.60"

[[record]]
compound = "COc1cc2ncnc(Sc3cccc(NC(=O)Nc4cc(C(C)(C)C)nn4-c4ccc(C(C)(C)C)cc4)c3)c2cc1OC"
measured_endpoint = "pKd"
assay_value = "< 6.00"

[[record]]
compound = "COc1cc2ncnc(Sc3cccc(NC(=O)Nc4cccc(C(C)(C)C#N)c4)c3)c2cc1OC"
measured_endpoint = "pKd"
assay_value = "> 6.60"

[[record]]
compound = "COc1cc2ncnc(Sc3cccc(NC(=O)Nc4cc(C5CCC5)nn4-c4ccccc4)c3)c2cc1OC"
measured_endpoint = "pKd"
assay_value = "< 6.00"

[[record]]
compound = "COCCOc1cc2ncnc(Sc3cccc(NC(=O)Nc4cc(C(C)(C)C)nn4-c4ccccc4)c3)c2cc1OC"
measured_endpoint = "pKd"
assay_value = "< 6.00"

[[record]]
compound = "COc1cc2ncnc(Sc3cccc(NC(=O)Nc4cc(C(C)(C)C)nn4-c4ccc(C)cc4)c3)c2cc1OC"
measured_endpoint = "pKd"
assay_value = "< 6.00"

[[record]]
compound = "CCc1cc(NC(=O)Nc2cccc(Oc3ncnc4cc(OC)c(OC)cc34)c2)n(-c2ccccc2)n1"
measured_endpoint = "pKd"
assay_value = "> 6.60"

[[record]]
compound = "COc1cc2ncnc(Oc3cccc(NC(=O)Nc4cc(C(C)(C)C)nn4-c4ccc(C)cc4C)c3)c2cc1OC"
measured_endpoint = "pKd"
assay_value = "< 6.00"

[[record]]
compound = "COc1cc2ncnc(Oc3ccc(Cl)c(NC(=O)Nc4cc(C(C)(C)C)nn4-c4ccc(C)cc4)c3)c2cc1OC"
measured_endpoint = "pKd"
assay_value = "< 6.00"

[[record]]
compound = "COc1cc2ncnc(Sc3cccc(NC(=O)Nc4cc(C5(C(F)(F)F)CC5)on4)c3)c2cc1OC"
measured_endpoint = "pKd"
assay_value = "> 6.60"

[[record]]
compound = "COCCOc1cc2ncnc(Oc3cccc(NC(=O)Nc4cc(C(C)(CF)CF)nn4-c4ccccc4)c3)c2cc1OC"
measured_endpoint = "pKd"
assay_value = "< 6.00"

[[record]]
compound = "COc1cc2ncnc(Sc3cccc(NC(=O)Nc4cc(C(C)(C)C)nn4-c4cccc(F)c4)c3)c2cc1OC"
measured_endpoint = "pKd"
assay_value = "< 6.00"

[[record]]
compound = "COc1cc2ncnc(Sc3cccc(NC(=O)Nc4cc(C(C)(C)C#N)no4)c3)c2cc1OC"
measured_endpoint = "pKd"
assay_value = "> 6.60"

[[record]]
compound = "COCCOc1cc2ncnc(Oc3cccc(NC(=O)Nc4cc(C(C)(C)C)nn4-c4ccc(C)cc4)c3)c2cc1OC"
measured_endpoint = "pKd"
assay_value = "< 6.00"

[[record]]
compound = "COc1cc2ncnc([S+]([O-])c3cccc(NC(=O)Nc4cc(C(C)(C)C)on4)c3)c2cc1OC (stereo not shown)"
measured_endpoint = "pKd"
assay_value = "< 6.00"

[[record]]
compound = "COc1cc2ncnc(Oc3ccc(Cl)c(NC(=O)Nc4cc(C(F)(F)F)nn4-c4ccccc4)c3)c2cc1OC"
measured_endpoint = "pKd"
assay_value = "< 6.00"

[[record]]
compound = "COCCOc1cc2ncnc(Oc3cccc(NC(=O)Nc4cc(C5CC5)no4)c3)c2cc1OC"
measured_endpoint = "pKd"
assay_value = "> 6.60"

[[record]]
compound = "COCCOc1cc2ncnc(Sc3cccc(NC(=O)Nc4ccc(C(F)(F)F)c(OC)c4)c3)c2cc1OC"
measured_endpoint = "pKd"
assay_value = "< 6.00"

[[record]]
compound = "COc1cc2ncnc(Sc3cccc(NC(=O)Nc4cc(C(C)(C)C)nn4-c4ccccc4F)c3)c2cc1OC"
measured_endpoint = "pKd"
assay_value = "< 6.00"

[[record]]
compound = "COc1cc2ncnc(Oc3cccc(NC(=O)Nc4cc(C(C)(C)CN5CCOCC5)on4)c3)c2cc1OC"
measured_endpoint = "pKd"
assay_value = "< 6.00"

[[record]]
compound = "CCOc1cc2c(Sc3cccc(NC(=O)Nc4cc(C(C)(C)F)no4)c3)ncnc2cc1OC"
measured_endpoint = "pKd"
assay_value = "> 6.60"

[[record]]
compound = "COc1cc2ncnc(Oc3cc(NC(=O)Nc4cc(C(F)(F)F)nn4-c4ccccc4)ccc3F)c2cc1OC"
measured_endpoint = "pKd"
assay_value = "< 6.00"

[[record]]
compound = "COc1cc2ncnc(Sc3cccc(NC(=O)Nc4cc(C(C)(C)C(F)(F)F)nn4-c4ccccc4)c3)c2cc1OC"
measured_endpoint = "pKd"
assay_value = "< 6.00"

[[record]]
compound = "COCCOc1cc2ncnc(Sc3cccc(NC(=O)Nc4cc(C(F)(F)F)nn4C)c3)c2cc1OC"
measured_endpoint = "pKd"
assay_value = "> 6.60"

[[record]]
compound = "COc1cc2ncnc(Oc3ccc(Cl)c(NC(=O)Nc4cc(C(C)(C)C)nn4-c4ccccc4)c3)c2cc1OC"
measured_endpoint = "pKd"
assay_value = "< 6.00"

[[record]]
compound = "COc1cc2ncnc(Oc3cccc(NC(=O)Nc4cc(C(C)(C)F)no4)c3F)c2cc1OC"
measured_endpoint = "pKd"
assay_value = "> 6.60"

[[record]]
compound = "COc1cc2nc(Cl)nc(Oc3cccc(NC(=O)Nc4cc(C(C)(C)C)on4)c3)c2cc1OC"
measured_endpoint = "pKd"
assay_value = "< 6.00"


---

# Kd values compiled below
Subject Of Test: RAF kinases (Homo sapiens, UniProt P15056)
Cond: read-out: BRAF WT Kd; BRAF WT
Measured Endpoint: Kd

[[record]]
compound = "COCCOc1cc2ncnc(Sc3cccc(NC(=O)Nc4cc(C(C)C)on4)c3)c2cc1OC [Ex 232]"
assay_value = "< 250 nM"

[[record]]
compound = "COc1ccc(-n2nc(C(C)(C)C)cc2NC(=O)Nc2cccc(Sc3ncnc4cc(OC)c(OC)cc34)c2)cc1 [Ex 362]"
assay_value = "> 1000 nM"

[[record]]
compound = "CCOc1cc2c(Sc3cccc(NC(=O)Nc4cc(C(C)(CF)CF)on4)c3)ncnc2cc1OC [Ex 395]"
assay_value = "< 250 nM"

[[record]]
compound = "COc1cc2ncnc(Oc3cccc(NC(=O)Nc4cc(C(C)(C)C)nn4-c4ccc(=O)[nH]c4)c3)c2cc1OC [Ex 317]"
assay_value = "> 1000 nM"

[[record]]
compound = "COCCOc1cc2ncnc(Sc3cccc(NC(=O)Nc4ccc(C(F)(F)F)c(F)c4)c3)c2cc1OC [Ex 231]"
assay_value = "> 1000 nM"

[[record]]
compound = "COc1cc2ncnc(Oc3cccc(NC(=O)Nc4cc(C(C)(C)C)nn4-c4ccccc4Cl)c3)c2cc1OC [Ex 340]"
assay_value = "> 1000 nM"

[[record]]
compound = "COc1cc2ncnc(Oc3cccc(NC(=O)Nc4cc(C5(C(F)(F)F)CC5)on4)c3)c2cc1OC [Ex 377]"
assay_value = "< 250 nM"

[[record]]
compound = "COc1cc2ncnc(Oc3cccc(NC(=O)Nc4cc(C(C)(C)C(F)(F)F)on4)c3)c2cc1O [Ex 264]"
assay_value = "< 250 nM"

[[record]]
compound = "CCOc1cc2c(Sc3cccc(NC(=O)Nc4cc(C(C)(C)C(F)(F)F)on4)c3)ncnc2cc1OC [Ex 262]"
assay_value = "< 250 nM"

[[record]]
compound = "COCCOc1cc2ncnc(Oc3cccc(NC(=O)Nc4cc(C(F)(F)F)nn4C)c3)c2cc1OC [Ex 220]"
assay_value = "< 250 nM"

[[record]]
compound = "COCCOc1cc2ncnc(Oc3cccc(NC(=O)Nc4cc(C(F)(F)F)n(C)n4)c3)c2cc1OC [Ex 208]"
assay_value = "< 250 nM"

[[record]]
compound = "COc1ccc(-n2nc(C(C)(F)F)cc2NC(=O)Nc2cccc(Oc3ncnc4cc(OC)c(OC)cc34)c2)cc1 [Ex 315]"
assay_value = "> 1000 nM"

[[record]]
compound = "CCOc1cc2c(Oc3cccc(NC(=O)Nc4cc(C(C)(C)C(F)(F)F)on4)c3)ncnc2cc1OC [Ex 260]"
assay_value = "< 250 nM"

[[record]]
compound = "COc1cc2ncnc(Oc3cccc(NC(=O)Nc4cc(C(C)(C)C)nn4-c4ccccn4)c3)c2cc1OC [Ex 344]"
assay_value = "> 1000 nM"

[[record]]
compound = "COc1cc2ncnc(Oc3cccc(NC(=O)Nc4cc(C(C)C)nn4-c4cccnc4)c3)c2cc1OC [Ex 350]"
assay_value = "< 250 nM"

[[record]]
compound = "COc1cc2ncnc(Sc3cccc(NC(=O)Nc4cc(C5(C(F)(F)F)CC5)nn4-c4ccccc4)c3)c2cc1OC [Ex 383]"
assay_value = "> 1000 nM"

